- Test system: Saccharomyces cerevisiae BY4741 SeMeCo community
- method: z-score of subpopulation abundance vs DMSO median, subpopulation auxotrophic for HUM; higher = larger share of this subpopulation than in DMSO controls
- conditionDescription: 10 µM; 24 h; SM minimal medium; subpopulation (auxotrophy): HUM
# z-score of subpopulation abundance per entry
Write no unit; give the number alone.

IN: Look at this molecule and give its reported z-score of subpopulation abundance. C1N2CN3CN1CN(C2)C3 [Methenamine]
OUT: 0.39

IN: Look at this molecule and give its reported z-score of subpopulation abundance. O=C(NCCO[N+](=O)[O-])c1cccnc1 [Nicorandil]
OUT: -0.48

---

- System: Saccharomyces cerevisiae BY4741 SeMeCo community
- method: z-score of subpopulation abundance vs DMSO median, subpopulation auxotrophic for HL; higher = larger share of this subpopulation than in DMSO controls
- conditionDescription: 10 µM; 24 h; SM minimal medium; subpopulation (auxotrophy): HL
Counter-ions that a name gives are not always drawn.
readoutKind: z-score of subpopulation abundance
Write no unit; give the number alone.

compound	z-score of subpopulation abundance
CO/N=C(\C(=O)N[C@@H]1C(=O)N2C(C(=O)[O-])=C(C[n+]3cccc4c3CCC4)CS[C@H]12)c1csc(N)n1 [Cefpirome sulfate]	-0.18
COc1ccccc1OCC(O)CN1CCN(CC(=O)Nc2c(C)cccc2C)CC1 (centres undefined) [Ranolazine 2HCl]	0.26
N#C/C(=C1/SC[C@@H](c2ccc(Cl)cc2Cl)S1)n1ccnc1	4.75

IN: Look at this compound and give its reported z-score of subpopulation abundance. Nc1nc(/C(=C/CC(=O)O)C(=O)N[C@@H]2C(=O)N3C(C(=O)O)=CCS[C@H]23)cs1 [Ceftibuten dihydrate]
OUT: -0.1

---

# z-score of subpopulation abundance per entry
- Test system: Saccharomyces cerevisiae BY4741 SeMeCo community
- method: z-score of subpopulation abundance vs DMSO median, subpopulation auxotrophic for M; higher = larger share of this subpopulation than in DMSO controls
- conditionDescription: 10 µM; 24 h; SM minimal medium; subpopulation (auxotrophy): M
Structures can show the parent of a compound that is named as a salt.

Would you please look over these solved cases?
compound	z-score of subpopulation abundance
Clc1ccc(C(Cn2ccnc2)OCc2ccsc2Cl)c(Cl)c1 (stereo not drawn)	-0.92
c1ccc(C2CN3CCSC3=N2)cc1 (stereo not drawn) [Tetramisole HCl]	-0.44

Could you now look at the following compound, please?
IN: Look at this compound and give its reported z-score of subpopulation abundance. O=C(Cn1cnnn1)N[C@@H]1C(=O)N2C(C(=O)O)=C(CSc3nncs3)CS[C@H]12 [Ceftezole]
OUT: -1.1

---

- Test system: Saccharomyces cerevisiae BY4741 SeMeCo community
- method: mean cell size (pixel area) (pixels); higher = larger cells
- conditionDescription: 10 µM; 24 h; SM minimal medium
Structures can show the parent of a compound that is named as a salt.
readoutKind: mean cell size
Write no unit; give the number alone.

IN: Look at this compound and give its reported mean cell size. NC[C@H]1O[C@H](O[C@H]2[C@H](O)[C@@H](O[C@H]3O[C@H](CO)[C@@H](O)[C@H](N)[C@H]3O)[C@H](N)C[C@@H]2N)[C@H](N)C[C@@H]1O
OUT: 11.7

IN: Look at this compound and give its reported mean cell size. C[C@H]1O[C@@H](O[C@H]2[C@@H](O)C[C@H](O[C@H]3[C@@H](O)C[C@H](O[C@H]4CC[C@@]5(C)[C@H](CC[C@@H]6[C@@H]5C[C@@H](O)[C@]5(C)[C@@H](C7=CC(=O)OC7)CC[C@]65O)C4)O[C@@H]3C)O[C@@H]2C)C[C@H](O)[C@@H]1O
OUT: 12.4

IN: Look at this compound and give its reported mean cell size. OC(c1cc(C(F)(F)F)nc2c(C(F)(F)F)cccc12)C1CCCCN1 (stereo unspecified) [Mefloquine HCl]
OUT: 12.3

IN: Look at this compound and give its reported mean cell size. CCOc1ccc(NC(C)=O)cc1
OUT: 12.6

---

# z-score of subpopulation abundance per entry
- Test system: Saccharomyces cerevisiae BY4741 SeMeCo community
- method: z-score of subpopulation abundance vs DMSO median, subpopulation auxotrophic for HLM; higher = larger share of this subpopulation than in DMSO controls
- conditionDescription: 10 µM; 24 h; SM minimal medium; subpopulation (auxotrophy): HLM
Where a name gives a salt, the structure may show the parent alone.
Write no unit; give the number alone.

Would you please look over these solved cases?
compound	z-score of subpopulation abundance
NC[C@H]1O[C@H](O[C@H]2[C@H](O)[C@@H](O[C@H]3O[C@H](CO)[C@@H](O)[C@H](N)[C@H]3O)[C@H](N)C[C@@H]2N)[C@H](N)C[C@@H]1O [Tobramycin]	-1.18
CN1CCC[C@@H]1Cc1c[nH]c2ccc(CCS(=O)(=O)c3ccccc3)cc12 [Eletriptan HBr]	-0.5
CCN1CCN(C(=O)N[C@@H](C(=O)N[C@@H]2C(=O)N3C(C(=O)O)=C(CSc4nnnn4C)CS[C@H]23)c2ccc(O)cc2)C(=O)C1=O [Cefoperazone]	0.34

Could you now look at the following compound, please?
IN: Look at this compound and give its reported z-score of subpopulation abundance. Cc1ccc(C(=O)C(C)CN2CCCCC2)cc1 (centres undefined) [Tolperisone HCl]
OUT: -0.48

---

- Tested on: Saccharomyces cerevisiae BY4741 SeMeCo community
- method: z-score of subpopulation abundance vs DMSO median, subpopulation auxotrophic for HL; higher = larger share of this subpopulation than in DMSO controls
- conditionDescription: 10 µM; 24 h; SM minimal medium; subpopulation (auxotrophy): HL
Structures can show the parent of a compound that is named as a salt.
Lab note: compare z-score of subpopulation abundance against -0.3. Equal or greater, write YES. Smaller, write NO.

IN: Say whether Cc1c(OCC(F)(F)F)ccnc1C[S+]([O-])c1nc2ccccc2[nH]1 (configuration not stated) shows z-score of subpopulation abundance of -0.3 or more.
OUT: YES

IN: Say whether CCCCOc1ccc(CC(=O)NO)cc1 shows z-score of subpopulation abundance of -0.3 or more.
OUT: NO

IN: Say whether C[C@H]1c2cccc(O)c2C(O)=C2C(=O)[C@]3(O)C(O)=C(C(N)=O)C(=O)[C@@H](N(C)C)[C@@H]3[C@@H](O)[C@@H]21 [Doxycycline] shows z-score of subpopulation abundance of -0.3 or more.
OUT: NO

IN: Say whether COc1ccc(Cc2cnc(N)nc2N)cc1OC shows z-score of subpopulation abundance of -0.3 or more.
OUT: NO

IN: Say whether Cn1cc(C(=O)[C@@H]2CCc3[nH]cnc3C2)c2ccccc21 [Ramosetron Hydrochloride] shows z-score of subpopulation abundance of -0.3 or more.
OUT: YES

IN: Say whether CN(C)CC(c1ccc(O)cc1)C1(O)CCCCC1 (configuration not stated) shows z-score of subpopulation abundance of -0.3 or more.
OUT: NO

IN: Say whether CCOC(=O)CCC(=O)O[C@H]1[C@H](O[C@@H]2[C@@H](C)[C@H](O[C@H]3C[C@@](C)(OC)[C@@H](O)[C@H](C)O3)[C@@H](C)C(=O)O[C@H](CC)[C@@](C)(O)[C@H](O)[C@@H](C)C(=O)[C@H](C)C[C@@]2(C)O)O[C@H](C)C[C@@H]1N(C)C [Erythromycin Ethylsuccinate] shows z-score of subpopulation abundance of -0.3 or more.
OUT: YES

IN: Say whether C[C@@H](O)[C@H]1C(=O)N2C(C(=O)O)=C(SCCNC=N)C[C@H]12 shows z-score of subpopulation abundance of -0.3 or more.
OUT: YES

IN: Say whether CC[C@H]1OC(=O)C[C@@H](O)[C@H](C)[C@@H](O[C@@H]2O[C@H](C)[C@@H](O)[C@H](N(C)C)[C@H]2O)[C@@H](CCN2C[C@H](C)C[C@H](C)C2)C[C@@H](C)C(=O)/C=C/C(C)=C/[C@@H]1CO[C@@H]1O[C@H](C)[C@@H](O)[C@@H](OC)[C@H]1OC [Tilmicosin] shows z-score of subpopulation abundance of -0.3 or more.
OUT: YES

IN: Say whether CC1(C)S[C@@H]2[C@H](NC(=O)C(c3ccccc3)S(=O)(=O)O)C(=O)N2[C@H]1C(=O)O (some centres not stated) [Sulbenicillin Sodium] shows z-score of subpopulation abundance of -0.3 or more.
OUT: YES

IN: Say whether CN1C2CCC1CC(OC(=O)C(O)c1ccccc1)C2 (configuration not stated) [Homatropine Bromide] shows z-score of subpopulation abundance of -0.3 or more.
OUT: NO

IN: Say whether Fc1ccc([C@@H]2CCNC[C@H]2COc2ccc3c(c2)OCO3)cc1 [Paroxetine mesylate] shows z-score of subpopulation abundance of -0.3 or more.
OUT: NO

---

- System: Saccharomyces cerevisiae BY4741 SeMeCo community
- method: z-score of subpopulation abundance vs DMSO median, subpopulation auxotrophic for H; higher = larger share of this subpopulation than in DMSO controls
- conditionDescription: 10 µM; 24 h; SM minimal medium; subpopulation (auxotrophy): H
Where a name gives a salt, the structure may show the parent alone.
// map z-score of subpopulation abundance to label using bucket A = under -0.02, bucket B = from -0.02 up to 2, bucket C = 2 and over

compound	categoryLabel
CCCOc1ccc2[nH]c(NC(=O)OC)nc2c1	bucket B
COc1ccc(-c2nc3cc(C4=NNC(=O)CC4C)ccc3[nH]2)cc1 (stereo not drawn)	bucket B
CCC[C@@H]1C[C@@H](C(=O)N[C@@H]([C@H]2O[C@H](SC)[C@H](O)[C@@H](O)[C@H]2O)[C@@H](C)O)N(C)C1 [Lincomycin Hydrochloride Monohydrate]	bucket A

IN: Which category does the recorded z-score of subpopulation abundance put Cc1ccc2c(Cl)cc(Cl)c(O)c2n1 in?
OUT: bucket C

IN: Which category does the recorded z-score of subpopulation abundance put CCCCCCCCCCCCCCCC[N+](C)(C)C [Cetrimonium Bromide (CTAB)] in?
OUT: bucket C

IN: Which category does the recorded z-score of subpopulation abundance put CC1(C)S[C@@H]2[C@H](NC(=O)[C@H](NC(=O)N3CCN(S(C)(=O)=O)C3=O)c3ccccc3)C(=O)N2[C@H]1C(=O)O [Mezlocillin Sodium] in?
OUT: bucket B

IN: Which category does the recorded z-score of subpopulation abundance put O=C1c2c(O)ccc(O)c2C(=O)c2c(NCCNCCO)ccc(NCCNCCO)c21 [Mitoxantrone 2HCl] in?
OUT: bucket C

IN: Which category does the recorded z-score of subpopulation abundance put C#CCC(Cc1cnc2nc(N)nc(N)c2n1)c1ccc(C(=O)N[C@@H](CCC(=O)O)C(=O)O)cc1 (stereo partly drawn) [Pralatrexate] in?
OUT: bucket C

IN: Which category does the recorded z-score of subpopulation abundance put CO[C@H]1O[C@@H]2O[C@@]3(C)CC[C@H]4[C@H](C)CC[C@@H]([C@H]1C)[C@@]24OO3 in?
OUT: bucket C

IN: Which category does the recorded z-score of subpopulation abundance put CC[C@H](Nc1ncnc2[nH]cnc12)c1nc2cccc(F)c2c(=O)n1-c1ccccc1 in?
OUT: bucket B

IN: Which category does the recorded z-score of subpopulation abundance put CCCCC(F)(F)[C@@]1(O)CC[C@H]2[C@@H](CC(=O)[C@@H]2CCCCCCC(=O)O)O1 in?
OUT: bucket A

IN: Which category does the recorded z-score of subpopulation abundance put NC(=NCCCCCCN=C(N)N=C(N)Nc1ccc(Cl)cc1)N=C(N)Nc1ccc(Cl)cc1 [Chlorhexidine?2HCl] in?
OUT: bucket C

IN: Which category does the recorded z-score of subpopulation abundance put CCC[C@@H]1C[C@@H](C(=O)N[C@@H]([C@H]2O[C@H](SC)[C@H](O)[C@@H](O)[C@H]2O)[C@H](C)Cl)N(C)C1 [Clindamycin HCl] in?
OUT: bucket A
